# Tested on: pdr5 ypt1^ts cells
# Experimental Details: microbe, parasite or virus in culture
# Format: cell-based, yeast
# Experimental Parameters: Table 3; 50 uM compound; 37° C.; background (0 uM) 0.077
Endpoint Label: optical density, 50 uM

Documented optical density, 50 uM of COc1ccc([C@@H](C)C(=O)c2ccc(O)cc2O)cc1 [ANGOLENSIN (R)] : 0.062

Documented optical density, 50 uM of CCN(CC)CCNC(=O)c1cc(Cl)c(N)cc1OC.Cl [METO- […]- CHLORIDE, reference compound] : 0.555

Documented optical density, 50 uM of COc1ccc(-c2coc3c(OC)c(OC)cc(O)c3c2=O)cc1 : 0.595

Documented optical density, 50 uM of CCOC(=O)C1(O)Oc2cc(OC)cc(OC)c2C(=O)C1c1ccccc1 (stereo not shown) : 0.468
